Source listed as the supplement of paper PMC10567573.

B1: VTI1B (parent)
chain: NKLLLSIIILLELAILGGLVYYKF

# Variants of: B1
# ASSAY TEXT: protein stability index of a GFP-peptide fusion (GPS, HEK-293T) (PSI 1-6); higher = more stable;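 note: lentivirally expressed fusions sorted by FACS into six bins by GFP to DsRed ratio, PSI derived from sequencing read proportions per bin multiplied by bin number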
# MEASUREMENT PARAMETERS: c terminus: a fixed tail appended
ASSAY ENDPOINT: protein stability index

>>> print(df.to_string())
     var  reported_measurement
 0  G18V                  2.56
 1  L10C                  3.11
 2  K23M                   4.1
 3   S6W                  2.11
 4  L11R                  3.68
 5   S6P                  3.12
 6  F24T                  3.12
 7   K2Y                  3.38
 8  L10F                   2.6
 9  L11M                  3.36
10  L19E                  4.42
11   I8E                  2.35
12  F24V                   2.5
13   L3A                  2.92
